# Tested on: SGC-7901 cell line
# test.summary: MTT cytotoxicity assay, SGC-7901
# Assay type: cell-based
# test.conditions: cytotoxicity, MTT method, mean ± SD, n = 3
property.name: IC50 (µM)
Note: unit µM is implicit; provide only the numeric part.

get_value(item= CCC(C)C=C(C)C1C(C)=CC2(C)CC(C)CCC2C1C(=O)C1C(=O)NC(=O)C1Cc1ccc(O)cc1 (stereo not shown) , readout=IC50) returns 41.7

====

# system.under.test: α-glycosidase
# test.summary: α-glycosidase inhibitory activity assay
# Type: biochemical
# test.conditions: α-glycosidase inhibition in vitro; mean ± SD, n = 3
For each entry below, report its IC50 value.

Reading of IC50 for `C/C=C/c1cc(=O)c2c(C)cc(O)cc2o1` with α-glycosidase: > 500 µM

Reading of IC50 for CCC(C)C=C(C)C1C(C)=CC2(C)CC(C)CCC2C1C(=O)C1C(=O)NC(=O)C1Cc1ccc(O)cc1 (stereo not drawn) [Compound 1, cladosporitin A] with α-glycosidase: > 500 µM

Reading of IC50 for CCC(C)C=C(C)C1C(C)=CC2(C)CC(C)CCC2C1C(=O)C1C(=O)NC(=O)C1Cc1ccc(O)cc1 (stereo not drawn) [Compound 2, cladosporitin B] with α-glycosidase: > 500 µM
